From: the kinase profiling compilation of Christmann-Franck et al. (2016)

# assayed.target: TYRO3 (human) (UniProt Q06418)
# Sequence (Q06418 whole entry, looked up): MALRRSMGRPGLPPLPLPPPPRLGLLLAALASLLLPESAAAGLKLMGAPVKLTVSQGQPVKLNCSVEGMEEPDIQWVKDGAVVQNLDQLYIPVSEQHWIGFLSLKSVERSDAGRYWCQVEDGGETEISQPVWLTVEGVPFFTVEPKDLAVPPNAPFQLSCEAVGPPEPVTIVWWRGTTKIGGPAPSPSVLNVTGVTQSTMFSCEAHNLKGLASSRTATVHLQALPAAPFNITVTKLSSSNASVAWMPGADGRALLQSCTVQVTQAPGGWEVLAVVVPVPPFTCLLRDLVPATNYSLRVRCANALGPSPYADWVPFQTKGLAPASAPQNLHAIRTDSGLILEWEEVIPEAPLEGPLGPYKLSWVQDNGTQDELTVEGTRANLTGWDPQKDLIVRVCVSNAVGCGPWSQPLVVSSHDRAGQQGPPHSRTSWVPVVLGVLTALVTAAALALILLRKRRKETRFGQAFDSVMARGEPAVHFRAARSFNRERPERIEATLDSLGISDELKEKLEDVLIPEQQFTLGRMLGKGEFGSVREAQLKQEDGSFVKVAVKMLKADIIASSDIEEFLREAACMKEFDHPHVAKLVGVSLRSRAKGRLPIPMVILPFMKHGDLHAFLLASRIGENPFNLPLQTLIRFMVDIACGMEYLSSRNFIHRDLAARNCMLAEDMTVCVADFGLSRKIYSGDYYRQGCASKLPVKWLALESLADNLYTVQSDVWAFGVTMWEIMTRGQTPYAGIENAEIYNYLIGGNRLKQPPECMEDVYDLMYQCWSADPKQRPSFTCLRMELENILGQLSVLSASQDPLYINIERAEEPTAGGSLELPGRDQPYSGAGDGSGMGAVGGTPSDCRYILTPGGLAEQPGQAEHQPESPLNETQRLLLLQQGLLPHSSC
# test: KINOMEscan competition binding
# cond: compound 10.0 µM
// kinase still bound, per cent of control lookup, one value per entry
measurement.kind: kinase still bound, per cent of control

| structure.notation | result |
| --- | --- |
| C=CC(=O)Nc1cc(NC(=O)c2ccc(C)c(NC(=O)c3ccno3)c2)cc(C(F)(F)F)c1 | 93% |
| C=CC(=O)Nc1cccc(Nc2nc(N[C@H]3CC[C@H](N(C)C)CC3)nc3c2ncn3C(C)C)c1 | 100% |
| Cc1ccc(NC(=O)c2cccc(C(C)(C)C#N)c2)cc1Nc1ccc2ncn(C)c(=O)c2c1 | 100% |
| CC[C@@H]1C(=O)N(C)c2cnc(Nc3ccc(C(=O)NC4CCN(C)CC4)cc3OC)nc2N1C1CCCC1 | 100% |
